tested on: Heliothis virescens, egg, tobacco budworm; assay: Tobacco budworm egg test, dipped cotton leaf and eggs; assay type: in vivo; set-up: key: 0: no effect; 10-25% kill; 26-35% kill; 36-45% kill; 46-55% kill; 56-65% kill; 66-75% kill; 76-85% kill; 86-99% kill; 9: 100% kill; details: 100 ppm; mortality rating after 3 days
value_type: TOBACCO BUDWORM Egg
Answers are plain numbers.

For orientation, consider the following solved cases.
**Q:** I am curious: what TOBACCO BUDWORM Egg value has been reported for N#Cc1c(Br)c(C(F)(F)F)n(CSC2=NCCN2)c1-c1ccc(Cl)cc1 ?
**A:** 0

**Q:** Now consider N#Cc1c(Br)c(Br)n(CSC(=N)N)c1Br .
**A:** 0

**Q:** Now consider CCOC(=S)SCn1c(Cl)c(Cl)c(C#N)c1-c1ccc(Cl)c(Cl)c1 .
**A:** 0

I would be grateful if you could provide TOBACCO BUDWORM Egg for each of the following entries.
1. CN(C)C(=S)SCn1c(-c2ccc(Cl)cc2)c(C#N)c(Cl)c1C(F)(F)F
2. N#Cc1c(Cl)c(C(F)(F)F)n(CSC(=N)N)c1-c1ccc(Cl)cc1
3. N#Cc1c(Br)c(C(F)(F)F)n(CSc2ncc[nH]2)c1-c1ccc(Cl)cc1
4. N#Cc1c(Br)c(C(F)(F)F)n(CSC2=NCCCN2)c1-c1ccc(Cl)cc1
5. CC(C)OC(=S)SCn1c(-c2ccc(Cl)cc2)c(C#N)c(Br)c1C(F)(F)F
6. CN=C(NC)SCn1c(Cl)c(Cl)c(C#N)c1-c1ccc(Cl)c(Cl)c1

**A:**
[0, 0, 0, 0, 0, 0]

Origin of measurements: patent EP0545103A1
